Recorded pKi for the following compounds
test: Displacement of [3H]CGS 21680 from bovine striatal membrane adenosine A2A receptor
Set-up: species or system Bos taurus
pKi: −log10 of the molar value.
measured attribute: pKi

[
  {
    "smi": "Nc1nc2ncccc2n2c(=O)n(-c3ccc(O)cc3)nc12",
    "reported": 6.08
  },
  {
    "smi": "O=c1n(-c2ccccc2)nc2c(NC3CCCCC3)nc3ncccc3n12",
    "reported": 6.70
  },
  {
    "smi": "CCCn1c(=O)c2[nH]c(C3CCCC3)nc2n(CCC)c1=O",
    "reported": 6.47
  }
]

* * *

Recorded Activity for the following molecules
Species on record: Bos taurus
test: Displacement of [3H]CGS 21680 from bovine striatal membrane adenosine A2A receptor at 10 uM

[
  {
    "smi": "COc1ccc(-n2nc3c(N(C(=O)c4ccccc4)C(=O)c4ccccc4)nc4c([N+](=O)[O-])cccc4n3c2=O)cc1",
    "Activity": "0%"
  },
  {
    "smi": "CC(=O)Nc1nc2c([N+](=O)[O-])cccc2n2c(=O)n(-c3ccccc3)nc12",
    "Activity": "36%"
  },
  {
    "smi": "COc1ccc(-n2nc3c(NC(=O)c4ccccc4)nc4c([N+](=O)[O-])cccc4n3c2=O)cc1",
    "Activity": "15%"
  },
  {
    "smi": "O=C(c1ccccc1)N(C(=O)c1ccccc1)c1nc2c([N+](=O)[O-])cccc2n2c(=O)n(-c3ccccc3)nc12",
    "Activity": "0%"
  },
  {
    "smi": "O=C(Nc1nc2c([N+](=O)[O-])cccc2n2c(=O)n(-c3ccccc3)nc12)c1ccccc1",
    "Activity": "0%"
  },
  {
    "smi": "COc1ccc(-n2nc3c(NC(C)=O)nc4c([N+](=O)[O-])cccc4n3c2=O)cc1",
    "Activity": "7%"
  }
]

* * *

Recorded pKi for the following molecules
test: Displacement of [3H]CGS 21680 from bovine striatal membrane adenosine A2A receptor
Design: species or system Bos taurus
pKi: −log10 of the molar value.
measured attribute: pKi

[
  {
    "smi": "COc1ccc(-n2nc3c(N)nc4ncccc4n3c2=O)cc1",
    "measured attribute": "pKi",
    "reported": 6.38
  },
  {
    "smi": "Nc1nc2ncccc2n2c(=O)n(-c3ccccc3)nc12",
    "measured attribute": "pKi",
    "reported": 7.03
  },
  {
    "smi": "Nc1nc2ncccc2n2c(=O)n(-c3ccc(F)cc3)nc12",
    "measured attribute": "pKi",
    "reported": 5.82
  },
  {
    "smi": "O=C(Nc1nc2ncccc2n2c(=O)n(-c3ccccc3)nc12)c1ccccc1",
    "measured attribute": "pKi",
    "reported": 5.15
  },
  {
    "smi": "O=C(Cc1ccccc1)Nc1nc2ncccc2n2c(=O)n(-c3ccccc3)nc12",
    "measured attribute": "pKi",
    "reported": 6.38
  },
  {
    "smi": "O=c1n(-c2ccccc2)nc2c(NC3CCCC3)nc3ncccc3n12",
    "measured attribute": "pKi",
    "reported": 6.29
  }
]

* * *

Recorded Activity for the following compounds
tested target: Adenosine receptor A1 (Bos taurus)
test: Displacement of [3H]DPCPX from bovine brain cortical membrane adenosine A1 receptor at 10 uM

[
  {
    "smi": "COc1ccc(-n2nc3c(N(C(=O)c4ccccc4)C(=O)c4ccccc4)nc4c([N+](=O)[O-])cccc4n3c2=O)cc1",
    "Activity (%)": 20
  },
  {
    "smi": "COc1ccc(-n2nc3c(NC(C)=O)nc4c([N+](=O)[O-])cccc4n3c2=O)cc1",
    "Activity (%)": 0
  },
  {
    "smi": "COc1ccc(-n2nc3c(NC(=O)c4ccccc4)nc4c([N+](=O)[O-])cccc4n3c2=O)cc1",
    "Activity (%)": 35
  },
  {
    "smi": "O=C(c1ccccc1)N(C(=O)c1ccccc1)c1nc2c([N+](=O)[O-])cccc2n2c(=O)n(-c3ccccc3)nc12",
    "Activity (%)": 39
  },
  {
    "smi": "O=C(Nc1nc2c([N+](=O)[O-])cccc2n2c(=O)n(-c3ccccc3)nc12)c1ccccc1",
    "Activity (%)": 32
  }
]
